assay.remarks: growth inhibitors of yeast BB579 in restrictive medium, primary screen, yeast lifespan-shortening project, S. cerevisiae (AID 804)
recorded.conditions: OD615, 48 h, at 10 µM, active compounds read high
About 710 (0.51%) of roughly 140,000 compounds were called active. The sample as a whole holds a higher share of actives than the screen did.
observed.property: inhibition (%)
Return type: number; implicit unit %.

CCN(CC)c1ccc(S(=O)(=O)N2CCOCC2)cc1NC(=O)CSc1cccc[n+]1[O-] ... 89
COC(=O)Cn1c(=NC(=O)c2cc(OC)c(OC)c(OC)c2)sc2cc(OC)ccc21 ... -32.8
C/C(CC(=O)Nc1ccc(Cl)cc1)=N\NC(=O)C(=O)NCCO ... -6.42
O=C(NC1CCCC1)C(NS(=O)(=O)c1ccc(Br)s1)c1ccccc1 (stereo not drawn) ... -26.3

Prompt: Entry `COc1cccc(/C=N/Nc2ncc(C(F)(F)F)cc2Cl)c1O` has what inhibition?
Response: 64.1

Prompt: May I ask what inhibition has been recorded for O=C1Nc2ccccc2C12Nc1ccccc1S2 (stereo not drawn) ?
Response: -30.7

Prompt: Entry `Cc1occc1C(=O)Nc1nnc(C2CCCCC2)s1` has what inhibition?
Response: -32.1

Ref: PubChem BioAssay AID804
